pIC50: −log10 of the molar value.
Hi, quick share: literature pIC50 data for Tyrosine-protein kinase HCK (Homo sapiens), several sources combined.

Worked set:
1) CCc1cnc(Nc2cc(COc3ccc(NC(=O)Nc4cc(C(C)(C)C)nn4-c4ccc(C)cc4)c4ccccc34)ccn2)cn1: 6.85
2) COc1cccc(Nc2ncnc(Nc3cc(OC)c(OC)c(OC)c3)n2)c1: < 4.93

Return pIC50 measured with Tyrosine-protein kinase HCK (Homo sapiens) given this compound: Nc1ncnc2c1c(-c1ccc(Oc3ccccc3)cc1)cn2[C@H]1CC[C@@H](NC2CCOCC2)CC1
8.09

And COc1cc(Nc2ncnc(-n3c(NCc4ccccn4)nc4ccccc43)n2)cc(OC)c1OC ?
< 5.03

And COc1cc(Nc2ncnc(-n3c(=O)[nH]c4ccccc43)n2)cc(OC)c1OC ?
< 4.94

And COc1ccc(-n2nc(C(C)(C)C)cc2NC(=O)Nc2ccc(OCc3ccnc(Nc4cnccn4)c3)c3ccccc23)cc1C ?
7.51

And COCCOc1ccc(Nc2ncnc(Nc3cc(-c4ccco4)n[nH]3)n2)cc1OCCOC ?
5.13 to 5.29

And COCCOc1ccc(Nc2ncnc(Nc3ccc(C)c(O)c3)n2)cc1OC ?
5.06 to 5.22

* * *

Hi, quick share: literature IC50 data for Tyrosine-protein kinase HCK (Homo sapiens, UniProt P08631), several sources combined.

Worked set:
1) COc1cc(Nc2ncnc(Nc3ccc(O)cc3Cl)n2)cc(OC)c1OC: > 11.1 µM
2) COc1cc(Nc2ncnc(Nc3cc(-c4ccccc4)nn3C)n2)cc(OC)c1OC: > 10.4 µM
3) COc1cc(-c2cn([C@H]3CC[C@H](N4CCn5c(nnc5C(F)(F)F)C4)CC3)c3ncnc(N)c23)ccc1NC(=O)c1cc2ccccc2n1C: 0.0077 µM
4) COc1cc(Nc2ncnc(-c3c(O)[nH]c4ccccc34)n2)cc(OC)c1OC: > 11.4 µM
5) Nc1ncnc2c1c(-c1ccc(Oc3ccccc3)cc1)nn2[C@H]1CC[C@H](NC(=O)c2ccccn2)CC1: 0.012 µM

Would you kindly share the measured IC50 for COc1cc(Nc2ncnc(-n3c(NCc4ccncc4)nc4ccccc43)n2)cc(OC)c1OC ?
> 9.29 µM

And NCc1ccc(Nc2ncnc(Nc3cc(-c4ccco4)n[nH]3)n2)cc1 ?
10 to 12.9 µM

And Cc1ccc(-n2nc(C(C)(C)C)cc2NC(=O)Nc2ccc(OCc3ccnc(Nc4cncc(C)n4)c3)c3ccccc23)cc1 ?
0.052 µM

And COc1cc(Nc2ncnc(N3c4ccc(F)cc4CCC3C)n2)cc(OC)c1OC (stereo not shown) ?
0.94 to 5.64 µM

And COc1cc(Nc2ncnc(Nc3ccc(Br)c(Cl)c3)n2)cc(OC)c1OC ?
5.14 to 7.5 µM

And COc1cc(Nc2ncnc(-n3cc(C)c4ccccc43)n2)cc(OC)c1OC ?
> 11.5 µM

And Cc1ccc(-n2nc(C(C)(C)C)cc2NC(=O)Nc2ccc(OCc3ccnc(Nc4cncc(C5CC5)n4)c3)c3ccccc23)s1 ?
0.018 µM

And COc1cc(Nc2ncnc(-n3c(N)nc4ccccc43)n2)ccc1OCCn1ccnn1 ?
> 10.1 µM

And OCCOc1ccc(F)c(Cc2c[nH]c3ncc(-c4cccnc4)cc23)c1F ?
≤ 10 µM

And Cc1ccc(-n2nc(C(C)(C)C)cc2NC(=O)Nc2ccc(OCc3ccnc(Nc4cnc(CC(=O)N(C)C)cn4)c3)c3ccccc23)cc1 ?
0.01 µM

And CCN(CC)CCOc1ccc(Nc2ncnc(-n3c(N)nc4ccccc43)n2)cc1OC ?
> 10 µM

* * *

Hi, quick share: literature IC50 data for Tyrosine-protein kinase HCK (Homo sapiens), several sources combined.

1) COc1cc(-c2cn([C@H]3CC[C@H](N4CCn5c(cnc5C)C4)CC3)c3ncnc(N)c23)ccc1NC(=O)c1cc2ccccc2n1C: 0.004 µM
2) COc1cc(Nc2ncnc(Nc3ccc4c(cnn4Cc4ccccc4)c3)n2)cc(OC)c1OC: 0.827 to 4.96 µM
3) COc1cc(Nc2ncnc(Nc3ccc4c(ccn4Cc4ccccc4)c3)n2)cc(OC)c1OC: > 9.33 µM
4) Cc1ccc(-n2nc(C(C)(C)C)cc2NC(=O)Nc2ccc(OCc3ccnc(Nc4cncc(C5CC5)n4)c3)c3ccccc23)cc1: 0.015 µM
5) COc1ccc2c(c1)c(CCNC(C)=O)cn2-c1ncnc(Nc2cc(OC)c(OC)c(OC)c2)n1: > 9.14 µM
6) COCCNC(=O)c1cnc(Nc2cc(COc3ccc(NC(=O)Nc4cc(C(C)(C)C)nn4-c4ccc(C)cc4)c4ccccc34)ccn2)cn1: 0.066 µM
7) COc1cc(Nc2ncnc(N(CC(=O)O)c3ccc4c(c3)OCO4)n2)cc(OC)c1OC: > 9.88 µM
8) COc1cc(Nc2ncnc(Nc3cccc4ccccc34)n2)cc(OC)c1OC: > 11.2 µM

Would you kindly share the measured IC50 for COc1cc(Nc2nccc(-n3c(=O)[nH]c4ccccc43)n2)cc(OC)c1OC ?
≥ 10 µM

And COc1ccc(-n2nc(C(C)(C)C)cc2NC(=O)Nc2ccc(OCc3ccnc(Nc4cnc(CO)cn4)c3)c3ccccc23)cc1 ?
0.013 µM

And COc1cc(Nc2ncnc(-n3c(NCc4cccnc4)nc4ccccc43)n2)cc(OC)c1OC ?
> 9.29 µM

And COc1cc(Nc2ncnc(Nc3cc(C(C)(C)C)[nH]n3)n2)cc(OC)c1OC ?
6.01 to 8.76 µM

And CC(C)(C)c1cc(NC(=O)Nc2ccc(OCc3ccnc(Nc4cncc(C5CC5)n4)c3)c3ccccc23)n(-c2ccc(O)cc2)n1 ?
0.007 µM

And CC(C)(C)N1CCN([C@H]2CC[C@H](n3cc(-c4ccc(Oc5ccccc5)cc4)c4c(N)ncnc43)CC2)CC1 ?
0.008 µM

And COc1cc(Nc2ncnc(-n3ccc4cc(O)ccc43)n2)cc(OC)c1OC ?
> 11.4 µM

And COc1cc(Nc2ncnc(-n3c(Cl)nc4ccccc43)n2)cc(OC)c1OC ?
> 10.9 µM

And C=CCN(c1ccc(Cl)cc1)c1ncnc(Nc2cc(OC)c(OC)c(OC)c2)n1 ?
> 10.5 µM

* * *

Hi, quick share: literature IC50 data for Tyrosine-protein kinase HCK (Homo sapiens, UniProt P08631), several sources combined.

1. COc1cc(Nc2ncnc(-n3c(NCc4ccccc4)nc4ccccc43)n2)cc(OC)c1OC: > 9.31 µM
2. COc1ccc(Nc2nc3ccccc3n2-c2ncnc(Nc3cc(OC)c(OC)c(OC)c3)n2)cc1OC: > 8.5 µM
3. Cc1ccc(-n2nc(C(C)(C)C)cc2NC(=O)Nc2ccc(OCc3ccnc(Nc4cncc(C#N)n4)c3)c3ccccc23)cc1: > 8.89 µM
4. COc1cc(-c2cn([C@H]3CC[C@H](N4CCn5c(nnc5C(C)C)C4)CC3)c3ncnc(N)c23)ccc1NC(=O)c1cc2ccccc2n1C: 0.0077 µM
5. COc1cc(Nc2ncnc(-n3c(Nc4ccccc4C)nc4ccccc43)n2)cc(OC)c1OC: > 9.31 µM
6. CC(C)Nc1ncccc1-c1ncnc(Nc2ccc(C(N)=O)cc2)n1: > 12.9 µM
7. COc1cc(Nc2ncnc(-n3cnc4ccccc43)n2)cc(OC)c1OC: > 11.9 µM
8. COc1cc(Nc2ncnc(Nc3cccc(C)c3)n2)cc(OC)c1OC: > 12.2 µM
9. COc1cc(Nc2ncnc(Nc3cnc4ccccc4c3)n2)cc(OC)c1OC: 8.65 to 11.1 µM
10. CCc1ccc(-n2nc(C(C)(C)C)cc2NC(=O)Nc2ccc(OCc3ccnc(Nc4cnccn4)c3)c3ccccc23)cc1: 0.089 µM

// moving on: another record for IC50
Return IC50 measured with Tyrosine-protein kinase HCK (Homo sapiens, UniProt P08631) given this compound: CN1CCN([C@H]2CC[C@H](n3nc(-c4ccc(Oc5ccccc5)cc4)c4c(N)ncnc43)CC2)CC1
< 0.000495 µM

* * *

pIC50: −log10 of the molar value.
Hi, quick share: literature pIC50 data for Tyrosine-protein kinase HCK (Homo sapiens, UniProt P08631), several sources combined.

1. Cc1ccc(-n2nc(C(C)(C)C)cc2NC(=O)Nc2ccc(OCc3ccnc(Nc4cnc(CO)cn4)c3)c3ccccc23)s1: 7.70
2. COc1cc(Nc2ncnc(-n3cc(CCO)c4ccccc43)n2)cc(OC)c1OC: < 4.97

// moving on: another record for pIC50
Would you kindly share the measured pIC50 for CCCCNC(=O)Nc1ccc(F)c(C(=O)c2c[nH]c3ncc(-c4cccnc4)cc23)c1F ?
≥ 5.00
